Cited source for all entries: PubChem BioAssay (NCI)

# Test: NCI Yeast Anticancer Drug Screen. Data for the rad50 strain (AID 155);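 further: 0% = growth of vehicle-only cultures of the same strain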
# Test Conditions: S. cerevisiae rad50 strain growth inhibition; at 5.0 µM (retest, dose inferred, filed as 0.5); hits give high values
This is part of a sample that, as a whole, favours compounds with a hit. Of some 79,000 tested, about 15% had one in any assay.
Property Name: growth inhibition (%)
Give the number; % is assumed, so skip it.

Any idea what its growth inhibition is? The compound is "CN(c1ccccc1)N(C)c1ccccc1"
-1

Which value of growth inhibition has been reported for "N/C(=N\N=C\c1cc(I)cc(I)c1O)NO" in the records?
11

What does the data say about its growth inhibition? Entry: CCN(CC)CCCC(C)Nc1cc(O)c2c(c1O)C(=O)c1ccccc1C2=O (stereo not drawn)
96

# get_value(readout='growth inhibition', item= Cc1ccc(NNC(=O)C(O)C(O)C(O)C(O)CO)cc1 (stereo not drawn) )
98

Record request: growth inhibition value, item CCN1CCC(O)(/C=C/c2ccccc2)C(C(=O)/C=C/c2ccccc2)C1 (stereo not drawn)
11

I would be grateful if you could share the reported growth inhibition for OC1CCC(COC(c2ccccc2)(c2ccccc2)c2ccccc2)O1 (stereo not drawn) .
-8

Value lookup for growth inhibition; key = OC(CCN1CCOCC1)c1ccc(Sc2ccccc2)cc1 (stereo not drawn)
55

Looking for the measured growth inhibition of "CO[C@H]1CC[C@@]2(C)C(=CC[C@H]3[C@@H]4C[C@H](OC(C)=O)C[C@@]4(C)CC[C@@H]32)C1" , can you help?
4

Data request, read-out growth inhibition, for "c1ccc2cc3c(ccc4cccc[n+]43)cc2c1"
17

// lookup growth inhibition for "Nc1ccc2[nH]c3ccccc3c2c1"
-4

Entry "Cc1ccccc1NC(=S)Nc1ccccc1O" : reported growth inhibition = ?
-4

# input compound: "O=C(O)Cc1ccc2c3c(cccc13)CC2" ; wanted: its growth inhibition
44

Query: growth inhibition; subject: CC(=O)OC1COC(n2nnc(C#N)c2C#N)C(OC(C)=O)C1OC(C)=O (stereo not drawn)
4

Which growth inhibition value is on record for "CCCCCCCCCCCCCCOCCS(=O)(=O)O" ?
18

Which value of growth inhibition has been reported for "COP(=O)(OC)/C(=C/c1cn(C(c2ccccc2)(c2ccccc2)c2ccccc2)cn1)NC=O" in the records?
5

Can you look up the measured growth inhibition of "CC[N+](C)(CC)CCCOC(=O)c1ccccc1Oc1ccc(C)cc1" for me?
1

Given "O=C(O)/C=C/C(=O)c1ccc(O)cc1" , state its recorded growth inhibition.
25

Quick one: growth inhibition for "COC(=O)CCCCCCCCCCC(=O)O" ?
-3

Give its growth inhibition value. Item: "COc1ccc2oc(-c3ccc(OC)c(OC)c3OC)cc(=O)c2c1"
-34

Look up growth inhibition for this compound: OCc1ccc2c(c1)CC1(C2)Cc2cc3c(cc2C1O)CCC3 (stereo not drawn)
20

Please report the recorded growth inhibition for CSc1c(S(C)=O)c2ccccc2n1C (stereo not drawn) .
20

Report growth inhibition for COc1cc(OC)c(C2CC(C)(OC)Oc3cc4c(cc32)OCO4)c(OC)c1 (stereo not drawn) please.
4

Quick one: growth inhibition of "CCS(=O)(=O)/C=C\S(=O)(=O)CC" ?
-154

###

# Test: NCI Yeast Anticancer Drug Screen. Data for the rad50 strain (AID 155);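 further: 0% = growth of vehicle-only cultures of the same strain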
# Test Conditions: S. cerevisiae rad50 strain growth inhibition; at 5.0 µM (retest, dose inferred, filed as 0.5); hits give high values
This is part of a sample that, as a whole, favours compounds with a hit. Of some 79,000 tested, about 15% had one in any assay.
Property Name: growth inhibition (%)
Give just the numeric value; % need not be written.

Which measured growth inhibition value corresponds to OC(Cc1ccc2ccccc2c1)CN1CCC(c2ccccc2)CC1 (stereo not drawn) ?
56

Requested read-out: growth inhibition. Entry: "O=C(N/C(=C\c1ccc(Cl)cc1)c1nc2ccccc2[nH]1)c1ccccc1"
0

Recorded growth inhibition of "COc1cc(-c2nn3c(=O)n(-c4ccc(Cl)cc4)c(=O)nc3s2)cc(OC)c1OC" , please.
6

What value of growth inhibition has been recorded for this entry: C=C1CC2(CCCC3(CC(=C)C(=O)O3)C2(C)C)OC1=O (stereo not drawn)
20

growth inhibition lookup needed for "C1=C(c2ccccc2)[P+](c2ccccc2)(c2ccccc2)C=C(c2ccccc2)[P+]1(c1ccccc1)c1ccccc1" , thanks.
87

Which growth inhibition is reported for this compound? COC(=O)N/N=C(\C)C(CN1CCOCC1)C(c1ccccc1)c1cc2ccccc2oc1=O (stereo not drawn)
10

# input compound: "CNC(=O)NN(C)C=O" ; wanted: its growth inhibition
0

Could you share which growth inhibition value was measured for "Nc1ccc2c(c1)S(=O)(=O)c1cc(O)ccc1O2" ?
23

State the recorded growth inhibition for this entry: "O=C1C=CC(=O)c2c(O)c(N3CCN(CCOCCO)CC3)c(Br)c(O)c21"
15

Which growth inhibition value is on record for "CCCCCCCCCCNCCSSCCNC(C)=O" ?
89

Recorded growth inhibition for "C[C@]12CC[C@H](O)C[C@@H]1CC[C@@H]1[C@@H]2CC[C@]2(C)C=CC[C@@H]12" , please?
-3

Name the recorded growth inhibition for "Nc1ccc2c(SCc3ccc([N+](=O)[O-])cc3)c3ccccc3nc2c1" .
86

Need growth inhibition, item "ClCCOCCOc1c(Cl)cc(Cl)c(Cl)c1Cl"
6

Any idea what growth inhibition was measured for "N#CSCC(=O)c1ccccc1" ?
93

// growth inhibition lookup, key: "CCCCCCCCCCCC(=O)NN"
14

Could you share which growth inhibition value was measured for "COC1=CC(=O)c2ncc(Cl)cc2C1=O" ?
-4

Can you look up the measured growth inhibition of "COc1ccc(C)c2nc3ccccc3nc12" for me?
-119

What value of measured growth inhibition is listed for "Cc1ccc(Sc2ccc(C)cc2[N+](=O)[O-])c([N+](=O)[O-])c1" ?
33

Name the recorded growth inhibition for "O=C(O)CNc1ccc2c(c1)Cc1cc(Br)ccc1-2" .
19

Value lookup for growth inhibition; key = "CC(=O)N(c1ccccc1)C(C)C"
6

Returns the measured growth inhibition for the input compound. Input: "CCCCCCCCCCCCNC(=O)C[n+]1cccc(C(N)=O)c1"
3

May I ask what growth inhibition has been recorded for CCCCCCCCCCCC(O)=C1C(=O)CC(O)CC1=O (stereo not drawn) ?
33

Look up growth inhibition for this compound: "Clc1ccc([I+]c2cccs2)cc1"
37

###

# Test: NCI Yeast Anticancer Drug Screen. Data for the rad50 strain (AID 155);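 further: 0% = growth of vehicle-only cultures of the same strain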
# Test Conditions: S. cerevisiae rad50 strain growth inhibition; at 50.0 µM (retest, dose inferred, filed as 5.0)
# Description: Growth inhibition of yeast strains with defined genetic alterations is measured as a screen for potential anti-cancer activity. Selected strains with alterations in DNA damage repair or cell cycle control were exposed to compounds and growth inhibition was measured relative to vehicle treated controls. The strain used in this assay is rad50
About 79,000 compounds went through this panel and 15% of them were active in at least one assay; those are over-represented in the sample as a whole. Active and inactive are the calls of the source. Rule as the data show it: active = growth inhibition above about 70%; inactive = the rest.
Use one of these outcomes when replying: active, inactive

# outcome recorded in this test, key = "Cc1cc(O)cc(C)c1[N+](=O)[O-]"
inactive

Could you kindly confirm the outcome this assay logged for "c1ccc([P+](CCCCCC[P+](c2ccccc2)(c2ccccc2)c2ccccc2)(c2ccccc2)c2ccccc2)cc1" ?
active

Assay result, entry CC(=O)N1C(C(=O)NNc2ccccc2)CSC1c1ccccc1 (centres undefined) — outcome?
active

How did this test come out for "C/C=C/C=N/N(c1nnc(-c2ccccc2)c(-c2ccccc2)n1)S(=O)(=O)c1ccc(C)cc1" ?
inactive

Tell me the assay call for NC(=O)C1C(=O)c2cccc3c2C1(Br)C(Br)CCC3 (centres undefined) please.
active

For "Nc1ccccc1/C=C1/Sc2cc[nH]c2C1=O" , which call appears in the assay record?
inactive

Write down the call the test reported for this compound. Item: "C[n+]1c(/C=C/c2ccccc2Cl)sc2ccccc21"
active

Kindly provide the recorded test outcome for the following compound: "O=C(O)c1cccc(N=Nc2c(S(=O)(=O)O)ccc3c2C(=O)c2ccccc2C3=O)c1O"
inactive

Dear colleague, could you share the recorded outcome for "O=C1c2cccc3cc([N+](=O)[O-])cc(c23)C(=O)N1O" when you have a moment?
inactive

###

# Test: NCI Yeast Anticancer Drug Screen. Data for the cln2 rad14 strain (AID 165);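 further: 0% = growth equal to vehicle treated cultures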
# Test Conditions: S. cerevisiae cln2 rad14 strain, at 5.0 µM (retest, dose inferred, filed as 0.5)
# Experimental: Growth inhibition of yeast strains with defined genetic alterations is measured as a screen for potential anti-cancer activity. Selected strains with alterations in DNA damage repair or cell cycle control were exposed to compounds and growth inhibition was measured relative to vehicle treated controls. The strain used in this assay is cln2 rad14
The panel holds about 79,000 compounds, 15% with a hit somewhere; the sample as a whole holds those more often. Calls of active or inactive are those of the source. Rule as the data show it: active = growth inhibition above about 70%; inactive = the rest.
Your reply should match one of these outcome classes. true = active, false = inactive

Please state the recorded outcome for this compound: Cc1ccc(CC2(C(=O)O)Cc3ccc(C)cc3C2)cc1 (stereo not given)
false

Entry "c1cc2cc(Cc3ccc4[nH]ccc4c3)ccc2[nH]1" : call = ?
false

Dear colleague, could you share the recorded outcome for COc1ccc2c(c1)OC(OC)(c1ccccc1)C(O)(OC)C2=O (stereo not given) when you have a moment?
false

Hi, do you know how CCCCNCCC1(c2ccccc2)C(=O)Oc2ccccc21 (stereo not given) came out in this test?
false

Any idea what this test logged for O=CNC(CCCC(=O)O)Cc1cc2ccccc2c2ccccc12 (stereo not given) ?
false

Recorded call for "CCC=Nc1c(O)cc(-c2ccccc2)n(C)c1=O" ?
false

Dear colleague, could you share the recorded outcome for OC12C3C4CC5C(C4[C@@H]1Br)C2[C@@](O)(c1c(F)c(F)c(F)c(F)c1F)C53 (stereo not given in full) when you have a moment?
false

Test call, this compound: OC(Cc1ccc2ccccc2c1)CN1CCC(c2ccccc2)CC1 (stereo not given)
true

Call for entry "Oc1c(Cl)cc(Cl)cc1C=Nc1cc(C(F)(F)F)ccc1Cl" :
false

What outcome does the record of this test show for "O/N=C(/C[N+]12CN3CN(CN(C3)C1)C2)c1ccc(I)cc1" ?
false

Hey, what did the test say about "CCSC(=S)NC(=O)c1ccccc1" ?
false

What is the recorded call for this compound in the test? "COC1=Nc2ccccc2S(=O)(=O)C=C1"
false

Field: outcome | Entry: CC(Nc1cc(Cl)cc(Cl)c1)c1ccncc1 (stereo not given)
false

Lab log entry: "CCOC(=O)/C(C#N)=C/c1ccccc1Br" — outcome as called in the assay?
false

Hey, what did the test say about "O=C(O)c1ccccc1/C=N/O" ?
false

Just curious, what result did O=C(O)C(O)C(O)C(OC1OC(CO)C(O)C(O)C1O)C(O)CO.[Br][Pt].[NH-]C1CCCCC1[NH-] (stereo not given) get here?
false

Would you mind telling me which call this test gave "OCCN=Cc1cccs1" ?
false

What call does the record list for "c1ccc2c(c1)nc1cc(NC3CCCCC3)c(=NC3CCCCC3)cc-1n2C1CCCCC1" ?
false

Fill in: this test's call for "CCc1ccc2c(-c3ccccc3)c3ccccc3c(-c3ccccc3)c2c1" is ___
false

Please let me know the test result on file for N#CC(Cl)CS(=O)(=O)c1ccccc1 (stereo not given) .
false

# fetch the recorded call for COc1ccc(C(=O)C(c2ccc(OC)cc2)C2(O)C(=O)Nc3c(Cl)cc(Cl)cc32)cc1 (stereo not given) here
false

Per the assay record, what outcome was assigned to "COC(=O)/C(=C/C=C(c1ccccc1)c1ccccc1)N(C(C)=O)C(C)=O" ?
false

Given "COc1cc(OC(C)C)cc2c1C(=O)C(C(O)(O)C(F)(F)F)=CC2=O" , state the outcome it received in this test.
false

Which result was noted for this compound in the test: "O=[N+]([O-])/C=C/c1ccco1"
false

Test call, this compound: CC(=O)N1C(c2[nH]c3ccccc3c2-c2ccccc2)CCN1c1ccccc1 (stereo not given)
false

Which outcome was entered for the compound CC(C(=O)N1C(=O)N(C(=O)C(C)C(O)c2ccccc2)C(c2ccccc2)C1c1ccccc1)C(O)c1ccccc1 (stereo not given) in this test?
false

Which outcome was entered for the compound "O=C1/C(=C/c2ccc(Cl)cc2)CCC/C1=C\c1ccc(O)c(CN2CCCCC2)c1" in this test?
false

Recorded test outcome, item "N/C(=N\OC(=O)Nc1ccccc1)c1ccccc1"
false

Dear colleague, could you share the recorded outcome for "O=[N+]([O-])c1c(C=Nc2ccccc2)oc(-c2c(O)ccc3ccccc23)c1-c1c(O)ccc2ccccc12" when you have a moment?
false

What outcome does the record of this test show for "NC(=O)NNC(=O)NNC(N)=O" ?
false
